molecular target: DNA ligase 1 (Homo sapiens, UniProt P18858)
Sequence (P18858 whole entry): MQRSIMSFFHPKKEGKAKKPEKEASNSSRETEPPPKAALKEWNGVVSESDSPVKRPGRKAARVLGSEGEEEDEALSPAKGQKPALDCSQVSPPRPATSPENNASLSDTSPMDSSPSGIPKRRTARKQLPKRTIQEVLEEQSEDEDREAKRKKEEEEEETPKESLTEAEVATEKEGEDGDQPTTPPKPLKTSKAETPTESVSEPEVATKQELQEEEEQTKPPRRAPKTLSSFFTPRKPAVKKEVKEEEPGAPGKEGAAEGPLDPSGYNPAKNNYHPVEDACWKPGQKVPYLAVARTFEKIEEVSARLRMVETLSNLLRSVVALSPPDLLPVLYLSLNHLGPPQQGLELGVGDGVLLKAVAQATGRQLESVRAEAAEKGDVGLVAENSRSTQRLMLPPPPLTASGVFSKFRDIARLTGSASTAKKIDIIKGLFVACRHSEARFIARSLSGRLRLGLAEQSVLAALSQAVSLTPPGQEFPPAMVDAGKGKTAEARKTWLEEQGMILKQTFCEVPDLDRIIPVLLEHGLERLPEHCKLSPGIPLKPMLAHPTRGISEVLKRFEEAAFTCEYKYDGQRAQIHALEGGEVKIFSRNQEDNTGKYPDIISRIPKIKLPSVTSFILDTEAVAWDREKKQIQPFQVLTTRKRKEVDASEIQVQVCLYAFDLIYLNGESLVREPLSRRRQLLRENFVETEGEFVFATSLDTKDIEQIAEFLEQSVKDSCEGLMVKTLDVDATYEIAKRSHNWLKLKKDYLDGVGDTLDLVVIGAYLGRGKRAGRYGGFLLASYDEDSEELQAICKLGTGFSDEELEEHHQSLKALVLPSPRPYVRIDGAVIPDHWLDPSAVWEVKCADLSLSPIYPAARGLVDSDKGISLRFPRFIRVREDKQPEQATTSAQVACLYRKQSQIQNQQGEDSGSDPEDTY
pIC50: −log10 of the molar value.
assayReadout: pIC50

>>> value("C=CCOc1ccccc1C(=O)NO")
4.23
>>> value("O=C(NO)c1ccccc1OCC(O)Cn1cc(-c2ccccc2)nn1 (configuration not stated)")
4.38

----------
test: Inhibition of Bacteriophage […] using 22-mer and 18-mer DNA complementary strand as substrate after 1 hr by 15% polyacrylamide gel electrophoresis; set-up: species or system Tequatrovirus T4
So basically: is IC50 under 30 µM? Then T. Not under? Then F.

>>> classassignment("O=C(NO)c1ccccc1OCC(O)Cn1cc(-c2ccccc2)nn1 (configuration not stated)")
"F"
>>> classassignment("O=C(NO)c1ccccc1OCc1ccc(Cl)c(Cl)c1")
"T"
>>> classassignment("O=C(NO)c1ccc2ccccc2c1OCc1ccc(Cl)c(Cl)c1")
"T"
>>> classassignment("O=C(NO)c1ccc2ccccc2c1OCc1cccc(Cl)c1")
"T"
>>> classassignment("O=C(NO)c1ccccc1OCc1cccc(Cl)c1")
"T"
>>> classassignment("C=CCOc1ccccc1C(=O)NO")
"F"
>>> classassignment("CCCCCCOc1c(C(=O)NO)ccc2ccccc12")
"T"
